- System: SNB-75
- EXPERIMENTAL PROTOCOL: NCI tumour cell line growth inhibition, 48 h
Active and inactive are the calls of the source. Rule as the data show it: active = GI50 up to about 1.1 µM and inactive = higher.
READOUT LABEL: GI50

Exam item: Dear colleague, I am looking for the recorded GI50 of the following compound: c1cc2c3c(c1)[C@@H]1O[C@@H]1c1cccc(c1-3)[C@@H]1O[C@H]21
Marked response: 20.9 µM (inactive)

Exam item: Also need CCCCCCCCCCCCCCCCOCC(CC(F)(F)P(=O)(O)O)OC(C)=O (stereo not drawn) , thanks.
Marked response: > 50 µM (inactive)

Exam item: Also need O=C(N/N=C1\C(=O)Nc2c(Cl)cc(Cl)cc21)C(=O)Nc1cccc(C(F)(F)F)c1 , thanks.
Marked response: > 100 µM (inactive)

----------
- Tested on: SK-MEL-2
- EXPERIMENTAL PROTOCOL: NCI tumour cell line growth inhibition, 48 h
Calls of active or inactive are those of the source. Rule as the data show it: active = GI50 up to about 1.1 µM and inactive = higher.
Return exactly one item of Yes = active, No = inactive

Exam item: Dear all, I need the recorded test outcome for O=[N+]([O-])c1cccc2nc3ccccc3c(NCCCCNc3c4ccccc4nc4cccc([N+](=O)[O-])c34)c12 , thank you.
Marked response: Yes

Exam item: Also need CN(C)c1ccc(C=c2c3ccccc3n3c2cc(-c2ccc(Cl)cc2)[n+]3C)cc1 , thanks.
Marked response: Yes

Exam item: Also need Cc1ccnc2nc3[nH]c4ccccc4c3cc12 , thanks.
Marked response: No

Exam item: Also need O=C1Nc2ccccc2/C1=C1/Nc2ccccc2/C1=N/OCCO , thanks.
Marked response: Yes

Exam item: Also need COC(=O)C(=O)C(C(=O)OC)C(=O)C(=O)Nc1c(C)cccc1C (stereo unspecified) , thanks.
Marked response: No

Exam item: Also need CC(C)(C)OC(=O)[C@@H]1CCC(=S)N1Cc1ccccc1 , thanks.
Marked response: No

Exam item: Also need O=c1[nH]nc(Cc2ccccc2)n1/N=C\c1ccccc1 , thanks.
Marked response: No

Exam item: Also need CC1=NN(c2nc(N)nc(/C(C#N)=C/c3ccccc3O)n2)C(C)(C)C1 , thanks.
Marked response: No

Exam item: Also need O=c1cc(NNc2cccc(Cl)c2)[nH]c(=O)[nH]1 , thanks.
Marked response: No

Exam item: Also need CN1CCOC1(C)c1ccccc1 (stereo unspecified) , thanks.
Marked response: No

Exam item: Also need C=C(Cl)Cc1c(O)c2c(c(O)c1CC(=C)Cl)C(=O)c1ccccc1C2=O , thanks.
Marked response: No

Exam item: Also need COC(=O)c1c(C)c2c(c(C)c1C(=O)OC)-c1c(C)ccc3ccc(C)c-2c13 , thanks.
Marked response: No

Exam item: Also need O=C1C2C3C=C4c5ccccc5N(c5ccccc5)C4(C2C(=O)N1Cc1ccccc1)C1C(=O)N(Cc2ccccc2)C(=O)C31 (stereo unspecified) , thanks.
Marked response: No

Exam item: Also need CC12C3CC4C5CC(C(C53)[C@@H]1NCc1ccccc1)C42 (stereo partly specified) , thanks.
Marked response: No

Exam item: Also need COc1c2c(cc3c(CCc4ccccc4)cc(=O)oc13)CCC(C)(C)O2 , thanks.
Marked response: No

Exam item: Also need CN(C1=NCCO1)c1cccc2ccccc12 , thanks.
Marked response: No

Exam item: Also need Cc1cc(=O)n2nc(CCl)sc2n1 , thanks.
Marked response: No

Exam item: Also need COC1(CC[C@H](C)COC2OC(CO)C(O)C(O)C2O)O[C@H]2C[C@H]3[C@@H]4CC=C5C[C@@H](OC6OC(CO)C(O)C(OC7OC(CO)C(O)C(O)C7O)C6OC6OC(C)C(O)C(O)C6O)CC[C@]5(C)[C@H]4CC[C@]3(C)[C@H]2[C@@H]1C (stereo partly specified) , thanks.
Marked response: No

Exam item: Also need O=C(OCc1ccccc1)OOC(=O)OCc1ccccc1 , thanks.
Marked response: No

Exam item: Also need CSCC1CC(c2ccc(Cl)cc2)=NO1 (stereo unspecified) , thanks.
Marked response: No

Exam item: Also need CO[C@H]1C[C@H](O[C@H]2CC[C@]3(C=O)[C@H]4CC[C@]5(C)[C@@H](C6=CC(=O)OC6)CC[C@]5(O)[C@@H]4CC[C@]3(O)C2)O[C@H](C)[C@H]1O[C@@H]1O[C@H](CO)[C@@H](O)[C@H](O)[C@H]1O , thanks.
Marked response: Yes
